Test: HPLC-assay for stability of peptides in lyophilised formulation on storage for 3 months (Example 4)
Type: physicochemical
Conditions: +5° C. +/- 3° C.; 3 months
MEASURE: stability of peptides in formulation, 3 M

Reference set (7 entries):
>  <RECORD SEQUENCE>
GLWHHQTEV (listed as Homo sapiens) [NRCAM-001, Neuronal cell adhesion molecule peptide]

>  <RESULT>
98.79 % of Initial

$$$$
>  <RECORD SEQUENCE>
AIIDGVESV (listed as Homo sapiens) [PTP-003, Protein tyrosine phosphatase, receptor-type, Z polypeptide 1 peptide]

>  <RESULT>
98.68 % of Initial

$$$$
>  <RECORD SEQUENCE>
KIQEILTQV (listed as Homo sapiens) [IGF2BP3-001]

>  <RESULT>
98.57 % of Initial

$$$$
>  <RECORD SEQUENCE>
LTFGDVVAV (listed as Homo sapiens) [FABP7-001]

>  <RESULT>
98.66 % of Initial

$$$$
>  <RECORD SEQUENCE>
TLGEFLKLDRERAKN (listed as Homo sapiens) [BIR-002, Baculoviral IAP repeat-containing 5 (survivin) peptide]

>  <RESULT>
100.01 % of Initial

$$$$
>  <RECORD SEQUENCE>
NLDTLMTYV (listed as Homo sapiens) [NLGN4X-001, Neuroligin 4, X-linked peptide]

>  <RESULT>
98.84 % of Initial

$$$$
>  <RECORD SEQUENCE>
TFSYVDPVITSISPKYG (listed as Homo sapiens) [MET-005, Met proto-oncogene peptide]

>  <RESULT>
98.59 % of Initial

$$$$

Could you now consider this next sequence?
// fetch stability of peptides in formulation, 3 M given entry AMTQLLAGV (listed as Homo sapiens) [TNC-001, Tenascin C peptide]
98.72 % of Initial

* * *

Entries and their measured stability of peptides in formulation, 3 M follow.
Experiment: HPLC-assay for stability of peptides in lyophilised formulation on storage for 3 months (Example 4)
Type: physicochemical
Conditions: +25° C. +/- 2° C.; 3 months

Reference set (3 entries):
>  <RECORD SEQUENCE>
AMTQLLAGV (listed as Homo sapiens) [TNC-001, Tenascin C peptide]

>  <RESULT>
97.21 % of Initial

$$$$
>  <RECORD SEQUENCE>
TMLARLASA (listed as Homo sapiens) [CSP-001, Chondroitin sulfate proteoglycan 4 peptide]

>  <RESULT>
98.71 % of Initial

$$$$
>  <RECORD SEQUENCE>
KIQEILTQV (listed as Homo sapiens) [IGF2BP3-001]

>  <RESULT>
97.34 % of Initial

$$$$

Could you now consider this next sequence?
// fetch stability of peptides in formulation, 3 M given entry KVFAGIPTV (listed as Homo sapiens) [PTP-005, Protein tyrosine phosphatase, receptor-type, Z polypeptide 1 peptide]
98.30 % of Initial

* * *

Entries and their measured in-use stability, peptide by HPLC-assay follow.
Test: HPLC-assay for in-use stability after reconstitution with 4.2% sodium hydrogen carbonate solution (Example 2, peptides SEQ ID NO 1-10)
Format: physicochemical
Conditions: no excipients; 1 h after reconstitution
Provide the reading as a plain figure in %.

// fetch in-use stability, peptide by HPLC-assay given entry LAALPHSCL (listed as Homo sapiens) [RGS-001, RGS-5 tumour-associated peptide]
90.9

// fetch in-use stability, peptide by HPLC-assay given entry YVDPVITSI (listed as Homo sapiens) [MET-001, c-met proto-oncogene tumour-associated peptide]
100.0

// fetch in-use stability, peptide by HPLC-assay given entry SVFAGVVGV (listed as Homo sapiens) [GUC-001, GUCY1A3 tumour-associated peptide]
100.0
